These measurements were taken from paper PMC10786891.

pKd values, listed per item
Molecular target: T1, EsCas13d, nuclease-dead (Eubacterium siraeum, UniProt B0MS50, R295A;H300A;R849A;H854A)
T1 sequence: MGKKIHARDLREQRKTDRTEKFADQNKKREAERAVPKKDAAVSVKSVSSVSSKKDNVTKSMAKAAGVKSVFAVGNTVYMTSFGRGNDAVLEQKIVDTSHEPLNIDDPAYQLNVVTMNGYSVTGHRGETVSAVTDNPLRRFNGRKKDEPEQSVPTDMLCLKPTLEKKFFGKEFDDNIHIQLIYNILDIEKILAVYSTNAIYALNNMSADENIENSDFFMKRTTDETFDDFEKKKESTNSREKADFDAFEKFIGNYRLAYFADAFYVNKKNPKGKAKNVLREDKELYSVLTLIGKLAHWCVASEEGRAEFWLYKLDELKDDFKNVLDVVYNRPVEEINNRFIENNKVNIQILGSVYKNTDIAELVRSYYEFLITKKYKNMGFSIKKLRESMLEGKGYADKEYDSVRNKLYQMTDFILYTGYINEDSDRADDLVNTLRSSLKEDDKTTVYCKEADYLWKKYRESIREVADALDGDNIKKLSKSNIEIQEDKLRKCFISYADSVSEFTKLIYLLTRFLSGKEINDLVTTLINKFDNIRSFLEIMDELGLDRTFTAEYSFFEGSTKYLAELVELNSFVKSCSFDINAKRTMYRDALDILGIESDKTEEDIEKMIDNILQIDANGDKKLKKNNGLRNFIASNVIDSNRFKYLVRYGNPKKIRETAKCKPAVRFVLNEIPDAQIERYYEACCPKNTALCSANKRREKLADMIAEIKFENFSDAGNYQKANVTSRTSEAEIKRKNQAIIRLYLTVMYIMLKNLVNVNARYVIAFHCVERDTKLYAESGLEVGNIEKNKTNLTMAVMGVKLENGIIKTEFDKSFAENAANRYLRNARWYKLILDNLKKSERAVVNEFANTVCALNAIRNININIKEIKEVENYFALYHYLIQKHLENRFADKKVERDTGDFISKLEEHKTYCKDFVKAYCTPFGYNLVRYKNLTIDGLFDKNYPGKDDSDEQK
Assay: crRNA (strand 1, pre-loaded); Mg2+; 40 mM Tris-HCl pH 7.5, 150 mM NaCl, 6 mM MgCl2, 1 mM DTT, 0.1% Tween-20, 0.2 mg/ml BSA; 25 C; 10 min per concentration, then washed
Conditions: tags: His6-TwinStrep-SUMO cleaved; N-terminal SNAP kept (SNAP-Surface 488); label: 3' end held by stalled T7 RNA polymerase
pKd: −log10 of the molar value.
MEASURED PROPERTY: pKd

[[record]]
binder = "target 1 insG 3' of 21,insU 3' of 1 (mixed) RNA 1: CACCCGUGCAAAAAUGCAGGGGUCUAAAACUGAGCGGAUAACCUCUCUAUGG RNA 2: GGGAAUGGAUCCACAUCUACGAAUUCGUACCGAUAGAGAGGUUAUCCGCUCAUCCGAGAUCGGAAGAGCACACGU"
recorded_number = 7.15

[[record]]
binder = "target 2 MT 5'PFS GAG 3'PFS UUA (mixed) RNA 1: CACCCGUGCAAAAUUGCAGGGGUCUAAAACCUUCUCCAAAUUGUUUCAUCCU RNA 2: GGGAAUGGAUCCACAUCUACGAAUUCGAGAGGAUGAAACAAUUUGGAGAAGUUAAGAUCGGAAGAGCACACGU"
recorded_number = 7.85

[[record]]
binder = "target 1 C2U,A16C (mixed) RNA 1: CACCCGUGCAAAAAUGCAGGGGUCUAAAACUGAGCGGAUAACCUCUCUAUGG RNA 2: GGGAAUGGAUCCACAUCUACGAAUUCGUACCAUAGCGAGGUUAUCCGCUUACCGAGAUCGGAAGAGCACACGU"
recorded_number = 7.25

[[record]]
binder = "target 1 MT 5'PFS UAA 3'PFS UCA (mixed) RNA 1: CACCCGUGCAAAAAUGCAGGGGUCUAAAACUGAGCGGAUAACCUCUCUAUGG RNA 2: GGGAAUGGAUCCACAUCUACGAAUUCUAACCAUAGAGAGGUUAUCCGCUCAUCAAGAUCGGAAGAGCACACGU"
recorded_number = 7.49

[[record]]
binder = "target 2 MT 5'PFS GCC 3'PFS ACG (mixed) RNA 1: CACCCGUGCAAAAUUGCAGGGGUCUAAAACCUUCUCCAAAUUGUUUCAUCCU RNA 2: GGGAAUGGAUCCACAUCUACGAAUUCGCCAGGAUGAAACAAUUUGGAGAAGACGAGAUCGGAAGAGCACACGU"
recorded_number = 7.91

[[record]]
binder = "target 1 MT 5'PFS AGA 3'PFS UAA (mixed) RNA 1: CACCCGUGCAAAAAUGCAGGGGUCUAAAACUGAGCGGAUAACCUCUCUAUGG RNA 2: GGGAAUGGAUCCACAUCUACGAAUUCAGACCAUAGAGAGGUUAUCCGCUCAUAAAGAUCGGAAGAGCACACGU"
recorded_number = 7.35

[[record]]
binder = "target 1 C6G,G17U (mixed) RNA 1: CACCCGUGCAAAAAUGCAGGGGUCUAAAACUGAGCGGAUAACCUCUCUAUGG RNA 2: GGGAAUGGAUCCACAUCUACGAAUUCGUACCAUAUAGAGGUUAUCGGCUCACCGAGAUCGGAAGAGCACACGU"
recorded_number = 7.50

[[record]]
binder = "target 1 U3G,U10C (mixed) RNA 1: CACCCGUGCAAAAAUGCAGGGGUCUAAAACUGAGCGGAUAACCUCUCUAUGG RNA 2: GGGAAUGGAUCCACAUCUACGAAUUCGUACCAUAGAGAGGUCAUCCGCGCACCGAGAUCGGAAGAGCACACGU"
recorded_number = 7.85

[[record]]
binder = "target 1 insA 3' of 15,insG 3' of 3 (mixed) RNA 1: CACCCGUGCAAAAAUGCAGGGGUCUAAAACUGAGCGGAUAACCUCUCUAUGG RNA 2: GGGAAUGGAUCCACAUCUACGAAUUCGUACCAUAGAGAAGGUUAUCCGCUGCACCGAGAUCGGAAGAGCACACGU"
recorded_number = 8.29

[[record]]
binder = "target 1 insG 3' of 19,insG 3' of 6 (mixed) RNA 1: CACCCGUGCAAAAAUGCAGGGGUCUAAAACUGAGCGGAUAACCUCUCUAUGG RNA 2: GGGAAUGGAUCCACAUCUACGAAUUCGUACCAUGAGAGAGGUUAUCCGGCUCACCGAGAUCGGAAGAGCACACGU"
recorded_number = 7.12

[[record]]
binder = "target 1 C7A,A14C (mixed) RNA 1: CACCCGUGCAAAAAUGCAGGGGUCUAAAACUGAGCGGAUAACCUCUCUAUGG RNA 2: GGGAAUGGAUCCACAUCUACGAAUUCGUACCAUAGAGCGGUUAUACGCUCACCGAGAUCGGAAGAGCACACGU"
recorded_number = 7.47

[[record]]
binder = "target 1 insG 3' of 10,insG 3' of 2 (mixed) RNA 1: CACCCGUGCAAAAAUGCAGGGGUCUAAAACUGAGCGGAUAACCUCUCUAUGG RNA 2: GGGAAUGGAUCCACAUCUACGAAUUCGUACCAUAGAGAGGUUGAUCCGCUCGACCGAGAUCGGAAGAGCACACGU"
recorded_number = 7.46

[[record]]
binder = "target 1 insC 3' of 18 (mixed) RNA 1: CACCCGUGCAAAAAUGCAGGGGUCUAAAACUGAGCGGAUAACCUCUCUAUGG RNA 2: GGGAAUGGAUCCACAUCUACGAAUUCGUACCAUACGAGAGGUUAUCCGCUCACCGAGAUCGGAAGAGCACACGU"
recorded_number = 7.52

[[record]]
binder = "target 1 insA 3' of 11,insC 3' of 5 (mixed) RNA 1: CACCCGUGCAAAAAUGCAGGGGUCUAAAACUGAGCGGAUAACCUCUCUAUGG RNA 2: GGGAAUGGAUCCACAUCUACGAAUUCGUACCAUAGAGAGGUAUAUCCGCCUCACCGAGAUCGGAAGAGCACACGU"
recorded_number = 7.90

